Every entry's value here was drawn from patent US10301304B2.

Experiment: Tissue Distribution in Rats
Type: in vivo, rat
Conditions: male, spleen; rat, 5 mg/kg oral, 24 hr post dose; read-out: Tissue to Plasma Ratio, Spleen
Reported Endpoint: Kp at 24 h
Numbers only.

Query :: # Kp at 24 h lookup, item `Cc1cc(-c2cncc([C@@H](O)C(F)(F)F)c2)nc2c1C(=O)N(c1cnn(CC(F)F)c1)C2(C)C`
Result :: 0.93

---

Assay: Intravenous bolus pharmacokinetics
Assay type: in vivo, Rat
Conditions: plasma; Rat, single IV bolus, 0.5 mg/kg nominal; read-out: CL
Excerpt: Following intravenous administration of a single bolus dose, Compound 1 had low systemic clearance and a long half-life in all species tested. […] The volume of distribution was greater than the total body water, indicating distribution of Compound 1 to tissues.
Reported Endpoint: clearance (mL/min/kg)
One number for each entry, in mL/min/kg.

Query :: Return reported clearance; argument: `Cc1cc(-c2cncc([C@@H](O)C(F)(F)F)c2)nc2c1C(=O)N(c1cnn(CC(F)F)c1)C2(C)C`
Result :: 2.8

---

Test: Intravenous bolus pharmacokinetics
Type: in vivo
Details: in vivo; Mouse, single IV bolus, 0.45 mg/kg nominal
Reported Endpoint: half-life (h)
Answers are plain numbers, in h.

Query :: Name the reported half-life value associated with the molecule `Cc1cc(-c2cncc([C@@H](O)C(F)(F)F)c2)nc2c1C(=O)N(c1cnn(CC(F)F)c1)C2(C)C`
Result :: 4.3

---

Assay: Tissue Distribution in Rats
Assay type: in vivo, rat
Conditions: male, brain; rat, 5 mg/kg oral, 2 hr post dose; read-out: Tissue to Plasma Ratio, Brain
Reported Endpoint: Kp at 2 h
One number for each entry.

Query :: Would you kindly share the measured Kp at 2 h for `Cc1cc(-c2cncc([C@@H](O)C(F)(F)F)c2)nc2c1C(=O)N(c1cnn(CC(F)F)c1)C2(C)C` ?
Result :: 0.07

---

Assay: Tissue Distribution in Rats
Type: in vivo, rat
Conditions: male, kidney; rat, 5 mg/kg oral, 2 hr post dose; read-out: Tissue to Plasma Ratio, Kidney
Reported Endpoint: Kp at 2 hr

Query :: For `Cc1cc(-c2cncc([C@@H](O)C(F)(F)F)c2)nc2c1C(=O)N(c1cnn(CC(F)F)c1)C2(C)C` , what is its reported Kp at 2 hr?
Result :: 2.54

---

Experiment: Intravenous bolus pharmacokinetics
Type: in vivo
Conditions: in vivo; Monkey, single IV bolus, 0.5 mg/kg nominal
Reported Endpoint: half-life (h)
One number for each entry, in h.

Query :: Field request: half-life | item: Cc1cc(-c2cncc([C@@H](O)C(F)(F)F)c2)nc2c1C(=O)N(c1cnn(CC(F)F)c1)C2(C)C [Compound 1]
Result :: 6.6

---

Target: CYP1A2 (Homo sapiens)
Sequence (P05177 whole entry): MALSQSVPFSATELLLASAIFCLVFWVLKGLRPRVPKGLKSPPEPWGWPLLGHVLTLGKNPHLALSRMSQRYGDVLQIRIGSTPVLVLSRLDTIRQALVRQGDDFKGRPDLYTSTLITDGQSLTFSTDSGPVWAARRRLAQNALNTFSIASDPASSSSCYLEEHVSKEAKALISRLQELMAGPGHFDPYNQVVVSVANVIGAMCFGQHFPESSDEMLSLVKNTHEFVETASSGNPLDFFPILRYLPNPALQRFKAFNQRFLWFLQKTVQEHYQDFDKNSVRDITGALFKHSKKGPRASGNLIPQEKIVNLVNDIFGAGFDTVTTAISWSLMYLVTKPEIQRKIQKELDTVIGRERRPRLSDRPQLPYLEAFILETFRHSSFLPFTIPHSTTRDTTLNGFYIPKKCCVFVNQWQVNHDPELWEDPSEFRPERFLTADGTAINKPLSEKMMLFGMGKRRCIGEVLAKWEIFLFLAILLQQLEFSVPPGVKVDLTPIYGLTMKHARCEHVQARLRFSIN
Reported Endpoint: IC50 (µM)
One number for each entry, in µM.

Query :: Looking for the measured IC50 of `Cc1cc(-c2cncc([C@@H](O)C(F)(F)F)c2)nc2c1C(=O)N(c1cnn(CC(F)F)c1)C2(C)C` , can you help?
Result :: 7

---

Assay: Tissue drug concentrations in CD40-induced IBD model
Type: in vivo, mouse
Conditions: Rag1 knock-out (Rag 1−/−), mouse, colon (relative to plasma), intraperitoneal; 10 mg/kg b.i.d. IP, 7 days, 2 h after last dose
Description: The PI3Kγ inhibitor, Compound 1, was tested in a CD40 induced colitis model to determine its effect on disease course. […] Body weights were measured daily during the study. Compound 1 concentrations were analyzed in the plasma samples collected 2 hours following the final dose at study termination. Concentrations were determined using a high performance liquid chromatography/tandem mass spectrometry (HPLC/MS/MS) method.
Reported Endpoint: Kp at 2 h

Query :: What value of measured Kp at 2 h is listed for Cc1cc(-c2cncc([C@@H](O)C(F)(F)F)c2)nc2c1C(=O)N(c1cnn(CC(F)F)c1)C2(C)C [Compound 1] ?
Result :: 1.2
